Experiment: E. coli acrAB mutant growth effects, primary screen, E. coli filamentation inducers, strain DRC39, OD650, 48 h (AID 1179);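 note: screen aims at cell division blockers that make cells filament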
Conditions: E. coli DRC39 delta-acrAB growth, higher = more signal, called active from +8 up or from −8 down
Please enter class 1 where z-score is greater than or equal to -0.03, and class 0 where it is lower.

Answered examples (4):
- COMPOUND: "CCCCN1CC=CC23O[C@@H]4C=CCOC(=O)[C@@H]4[C@H]2C(=O)N(CCCO)[C@@H]3C1=O (stereo not given in full)"
  CLASS ASSIGNMENT: "class 0"
- COMPOUND: "O=C1NC(=O)C2C1C=CC(C(O)c1ccc3c(c1)OCO3)N2Nc1ccccn1 (stereo not given)"
  CLASS ASSIGNMENT: "class 1"
- COMPOUND: "C[C@H]1C2=C3C(CC[C@H]4C(OCc5ccc(F)cc5C(F)(F)F)OC[C@](C)([C@@H]34)N(C(=O)OC(C)(C)C)C2)C(CO)C1CO (stereo not given in full)"
  CLASS ASSIGNMENT: "class 0"
- COMPOUND: "C=CCNC(=O)[C@@H]1[C@H]2C(=O)O[C@H](c3ccccc3)[C@H](c3ccccc3)N2[C@H](c2ccc(OCCO)cc2)[C@@]12C(=O)N(C(=O)OCCOC)c1ccc(C#CC3=CCCCC3)cc12"
  CLASS ASSIGNMENT: "class 0"

Assess whether reported z-score for [N-]=[N+]=Nc1ccccc1C[C@]1(C(=O)NCc2ccccc2)N=C(c2ccc(OCCCO)cc2)O[C@H]1c1ccccc1 sits at -0.03 or higher.
class 0
